procedure-summary: Binding affinity to Bacillus subtilis ribD RNA FMN riboswitch after 40 to 48 hrs by SDS-PAGE analysis
condition-context: read-out: Kd(app)
endpoint: Kd (nM)
Quick reminder: number only, in nM, skip the unit.

Problem: Which Kd is reported for this molecule? Cc1cc2nc3c(=O)[nH]c(=O)nc-3n(C[C@@H](O)[C@@H](O)[C@@H](O)CO)c2cc1N(C)C
Result: 100

---

procedure-summary: Binding affinity to 1A1 Bacillus subtilis 179 lysC RNA lysine riboswitch by probing analysis
condition-context: read-out: Kd(app)
endpoint: pKd
Lab note — pKd values are minus log10 of concentrations in M.

Problem: Which pKd is reported for this compound? NCCS(=O)(=O)C[C@H](N)C(=O)O
Result: 5.60
